System: LXRa:RXRa (NR concentration 270 nM, RXRa partner concentration 90 nM)
Experiment: PBM binding z-score (relative to random genomic background probes); higher = stronger binding; sequences stand for … in GC…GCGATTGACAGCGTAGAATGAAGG

{"columns": ["CONSTRUCT_SEQUENCE", "PBM binding z-score"],
 "data": [
  ["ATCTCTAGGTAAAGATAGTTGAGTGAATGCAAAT", 0.358],
  ["ATCGAAAGGTCTAGGTGAGTATAGAGAAAGGGAA", 0.836],
  ["TCATAGAGGTAATACAGGTGAAAGTCGGCATCTA", 1.43],
  ["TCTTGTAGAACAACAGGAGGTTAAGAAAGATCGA", 1.07],
  ["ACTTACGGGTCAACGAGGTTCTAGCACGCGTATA", 4.04],
  ["GCTGCTAGGGCAACTGATGGTCAGCTAAAGCTCG", -0.0812],
  ["GCTTACGGGTCAAAGGATATAGCATGAATAGAAT", 3.75],
  ["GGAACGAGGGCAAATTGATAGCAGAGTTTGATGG", 0.348],
  ["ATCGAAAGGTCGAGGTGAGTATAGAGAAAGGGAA", 3.57],
  ["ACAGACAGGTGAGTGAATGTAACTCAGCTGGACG", -0.166],
  ["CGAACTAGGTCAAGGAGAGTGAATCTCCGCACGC", 1.99],
  ["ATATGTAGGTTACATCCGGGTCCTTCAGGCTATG", 1.72]
]}
